- test.description: qHTS for Inhibitors of the Functional Ribonucleoprotein Complex (vRNP) of Lassa (LASV) Arenavirus: LASV Primary Screen - GLuc reporter signal (AID 1347082); further: nearly all actives have a fitted effect of over 60% in size
- stated.conditions: LASV minigenome vRNP, Gaussia luciferase reporter; series mostly up to 57.5 µM
Records with an inconclusive call do not appear. Activity calls are given as the source filed them. The call rests on the fitted dose curve; tested in HEK293 reporter line.
measured.property: outcome

Consider the worked cases shown below.
[[record]]
compound = "CO/N=C1\\CN(c2nc3c(cc2F)c(=O)c(C(=O)O)cn3C2CC2)CC1CN (stereo not given)"
measured_property = "outcome"
reported = "inactive"

[[record]]
compound = "COc1cc([C@@H]2c3cc4c(cc3[C@H](O)[C@H]3COC(=O)[C@H]23)OCO4)cc(OC)c1OC"
measured_property = "outcome"
reported = "inactive"

[[record]]
compound = "CCCCc1nc(Cl)c(CO)n1Cc1ccc(-c2ccccc2-c2nn[nH]n2)cc1"
measured_property = "outcome"
reported = "inactive"

[[record]]
compound = "O=C(NC(O)C(Cl)(Cl)Cl)NC(O)C(Cl)(Cl)Cl (stereo not given)"
measured_property = "outcome"
reported = "inactive"


// below: outcome requested for another compound
Sample O=C(O)COCCN1CCN(C(c2ccccc2)c2ccc(Cl)cc2)CC1 (stereo not given) — what was its outcome?
inactive

---

- System: OV90
- test.description: Primary qHTS to identify gynecologic anti-cancer compounds using libraries of approved drugs and bioactive compounds (AID 1345084); further: nearly all actives have a fitted effect of over 55% in size
- stated.conditions: Gynecologic cancer cell panel viability, ATPlite luminescence, 48 h; series mostly up to 57.5 µM
Results filed as inconclusive are left out. The source made the active and inactive calls. Calls come from the whole dose curve; as a rule, active = well fitted cell-killing curve with a large enough effect; inconclusive = small, poorly fitted or top-dose-only effect, or effect the other way; inactive = flat fitted curve, though single readings scatter.
measured.property: outcome

[[record]]
molecule = "Cc1ccc(S(=O)(=O)N[C@@H](CCCCN)C(=O)CCl)cc1"
reported = "inactive"

[[record]]
molecule = "CNC(=O)c1ccc(N2C(=S)N(c3ccc(C#N)c(C(F)(F)F)c3)C(=O)C23CCC3)cc1F"
reported = "inactive"

[[record]]
molecule = "CC1NCCOC1c1ccccc1 (stereo not drawn)"
reported = "inactive"


---

- stated.conditions: Ebola virus entry assay, ratio channel
Calls of active or inactive are those of the source.
The reply should be one of these categories: active, inactive

GET /call?item= CN(C)C(=O)C(CCN1CCC(O)(c2ccc(Cl)cc2)CC1)(c1ccccc1)c1ccccc1 returns the recorded outcome of this test.
active

Short answer needed: outcome of this test for NNc1nncc2ccccc12 ?
inactive

Hi team, can someone confirm the assay call for COC(=O)CCc1ccc(OCC(O)CNC(C)C)cc1 (stereo not drawn) ?
inactive

Recorded call for CC(CN(C)C)CN1c2ccccc2CCc2ccccc21 (stereo not drawn) ?
active

Status in this test for CCC(C(N)=O)N1CCCC1=O (stereo not drawn) ?
inactive

Entry CN1C(=S)CN=C(c2ccccc2)c2cc(Cl)ccc21 : call = ?
inactive

// outcome(item) with item = O=C(O)CCNC(=O)c1ccc(N=Nc2ccc(O)c(C(=O)O)c2)cc1
inactive

Short answer needed: outcome of this test for C[C@@H]1CC(=O)NN=C1c1ccc(NN=C(C#N)C#N)cc1 ?
inactive

Please let me know the test result on file for CN(C)CCC=C1c2ccccc2CCc2ccccc21 .
active

Given O=NN(CCCl)C(=O)NC1CCCCC1 , state the outcome it received in this test.
inactive

What is the recorded call for this compound in the test? COc1ccc(C(CN(C)C)C2(O)CCCCC2)cc1 (stereo not drawn)
inactive

For this compound, state the assay outcome: COc1cc([C@@H]2c3cc4c(cc3[C@H](O)[C@H]3COC(=O)[C@H]23)OCO4)cc(OC)c1OC
active

What call does the record list for CCN(CC)CCOC(=O)C1(C2CCCCC2)CCCCC1 ?
active

Could you kindly confirm the outcome this assay logged for CN1CCN(C2=Nc3ccccc3Oc3ccc(Cl)cc32)CC1 ?
active

Dear all, I need the recorded test outcome for Cc1ccc(-c2cc(C(F)(F)F)nn2-c2ccc(S(N)(=O)=O)cc2)cc1 , thank you.
inactive

# outcome recorded in this test, key = COc1cc2nc(N3CCN(C(=O)C4CCCO4)CC3)nc(N)c2cc1OC (stereo not drawn)
inactive

Hi, sorry to bother you, what did the test record for NC[C@H](O)c1ccc(O)c(O)c1 ?
active

Please indicate how the test categorized NCCc1cc(O)c(O)cc1O .
inactive

What call does the record list for CC(=O)Nc1cc([As](=O)(O)O)ccc1O ?
inactive

What call does the record list for CN(C)CC[C@@H](c1ccc(Br)cc1)c1ccccn1 ?
inactive

What classification did CC(N)C12CC3CC(CC(C3)C1)C2 (stereo not drawn) end up with in this test?
active

Field: outcome | Entry: Nc1cccc2c1CN(C1CCC(=O)NC1=O)C2=O (stereo not drawn)
inactive

Tell me the assay call for COC(=O)Nc1nc2ccc(C(=O)c3cccs3)cc2[nH]1 please.
active

Per the assay record, what outcome was assigned to CCCN(CCC)S(=O)(=O)c1ccc(C(=O)O)cc1 ?
inactive

Look up the recorded call for CCc1ccc(CCOc2ccc(CC3SC(=O)NC3=O)cc2)nc1 (stereo not drawn) in this test.
inactive

# outcome recorded in this test, key = Cc1nccn1CC1CCc2c(c3ccccc3n2C)C1=O (stereo not drawn)
active

Returns: the outcome recorded for Cc1cccc(C)c1NC1=NCCCS1 in this assay.
inactive

Hello, I am checking results. What call was entered for CNCCCN1c2ccccc2CCc2ccccc21 ?
active

# fetch the recorded call for CNCC[C@H](Oc1cccc2ccccc12)c1cccs1 here
active

Assay result, entry CN(C)CCOC(C)(c1ccccc1)c1ccccn1 (stereo not drawn) — outcome?
active

Could you please tell me the result logged for CC(C)C[C@H](NC(=O)[C@H](Cc1ccccc1)NC(=O)c1cnccn1)B(O)O in this assay?
active

Test call for this compound, please: CC(=O)CCCCn1c(=O)c2c(ncn2C)n(C)c1=O
inactive

I'd appreciate the recorded outcome for CC1(CN2CCC(n3c(=O)[nH]c4ccccc43)CC2)OCc2ccccc2-n2cccc21 (stereo not drawn) from this test.
active

Lab log entry: CC1=C(/C=C/C(C)=C/C=C/C(C)=C/C(=O)Nc2ccc(O)cc2)C(C)(C)CCC1 — outcome as called in the assay?
inactive

Just curious, what result did CN1CCN(C2=Nc3cc(Cl)ccc3Nc3ccccc32)CC1 get here?
active

Could you check what this test reported for COC(=O)Nc1nc2ccc(C(=O)C3CC3)cc2[nH]1 ?
active

GET /call?item= NC1[C@H]2CN(c3nc4c(cc3F)c(=O)c(C(=O)O)cn4-c3ccc(F)cc3F)C[C@@H]12 (stereo partly drawn) returns the recorded outcome of this test.
inactive

Test call for this compound, please: COc1cc2c(c(OC)c1OC)-c1ccc(OC)c(=O)cc1[C@@H](NC(C)=O)CC2
active

Returns: the outcome recorded for COc1cc2c(N3CCN(C(=O)Nc4ccc(OC(C)C)cc4)CC3)ncnc2cc1OCCCN1CCCCC1 in this assay.
active

# fetch the recorded call for CCN(CC)CCN1C(=O)CN=C(c2ccccc2F)c2cc(Cl)ccc21 here
inactive

Recorded call for CN1C(CCl)Nc2cc(Cl)c(S(N)(=O)=O)cc2S1(=O)=O (stereo not drawn) ?
inactive

Hi, do you know how COc1cc2c(cc1OC)[C@@H]1CC(=O)[C@@H](CC(C)C)CN1CC2 came out in this test?
inactive

Could you kindly confirm the outcome this assay logged for O=[N+]([O-])c1cc([As](=O)(O)O)ccc1O ?
inactive

What classification did O=C1CCc2cc(OCCCCc3nnnn3C3CCCCC3)ccc2N1 end up with in this test?
inactive

Tell me the assay call for O[C@@H](CNC[C@H](O)[C@H]1CCc2cc(F)ccc2O1)[C@@H]1CCc2cc(F)ccc2O1 please.
active

Tell me the assay call for CCOC(=O)N1CCC(=C2c3ccc(Cl)cc3CCc3cccnc32)CC1 please.
active

Name the outcome recorded for CC(C)(C)NCC(O)c1cc(Cl)c(N)c(Cl)c1 (stereo not drawn) in the assay.
inactive

State the result this test recorded for CN(CCOc1ccc(NS(C)(=O)=O)cc1)CCc1ccc(NS(C)(=O)=O)cc1 .
inactive

Recorded values, source PubChem BioAssay (NCATS).
